This collection of values is drawn from patent US20260217708A1.

# Lookup of reported IC50 keyed by entry
# TARGET_UNDER_TEST: system Xc^− (Homo sapiens)
# Sequence (Q9UPY5 1-501): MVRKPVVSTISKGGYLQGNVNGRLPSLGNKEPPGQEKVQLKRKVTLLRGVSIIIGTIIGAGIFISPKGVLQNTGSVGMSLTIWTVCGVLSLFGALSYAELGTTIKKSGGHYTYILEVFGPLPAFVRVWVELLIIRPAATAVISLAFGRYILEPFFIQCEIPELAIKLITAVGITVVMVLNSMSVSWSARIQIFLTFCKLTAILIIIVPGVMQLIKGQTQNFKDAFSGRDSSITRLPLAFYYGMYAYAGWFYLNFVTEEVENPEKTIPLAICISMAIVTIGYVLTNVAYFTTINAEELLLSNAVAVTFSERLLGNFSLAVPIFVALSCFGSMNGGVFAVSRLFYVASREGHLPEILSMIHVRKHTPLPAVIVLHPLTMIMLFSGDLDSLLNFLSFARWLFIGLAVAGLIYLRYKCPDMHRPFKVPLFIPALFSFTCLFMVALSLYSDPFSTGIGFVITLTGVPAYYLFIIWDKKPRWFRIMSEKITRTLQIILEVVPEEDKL
# Sequence (P08195 1-529 partner): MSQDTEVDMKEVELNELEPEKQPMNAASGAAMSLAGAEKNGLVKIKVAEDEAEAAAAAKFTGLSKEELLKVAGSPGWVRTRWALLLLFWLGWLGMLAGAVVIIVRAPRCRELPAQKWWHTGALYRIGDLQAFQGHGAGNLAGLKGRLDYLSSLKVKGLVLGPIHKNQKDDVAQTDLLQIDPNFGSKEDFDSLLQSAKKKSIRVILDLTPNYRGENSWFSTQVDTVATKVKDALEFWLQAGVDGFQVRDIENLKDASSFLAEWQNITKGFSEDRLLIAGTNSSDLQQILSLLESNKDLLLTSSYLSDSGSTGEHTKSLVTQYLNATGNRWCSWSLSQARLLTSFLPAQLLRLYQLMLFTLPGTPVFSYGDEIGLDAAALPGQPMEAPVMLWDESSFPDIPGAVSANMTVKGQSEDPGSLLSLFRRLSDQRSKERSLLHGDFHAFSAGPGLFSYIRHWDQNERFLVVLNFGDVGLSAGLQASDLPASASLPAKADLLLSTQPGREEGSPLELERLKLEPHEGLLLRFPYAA
# MEASUREMENT_NOTES: Cystine-induced glutamate release assay
# Type: cell-based
# Design: endogenous in cells; host or cells: H4 cells
# ASSAY_CONTEXT: H4 cells, sodium-free HEPES buffer, 50 μM L-Cystine, 2 hours, Amplex Red glutamate readout; read-out: pIC50 Cystine-induced glutamate release assay (converted)

I am curious: what IC50 value has been reported for Cc1cc2c(c(F)n1)-c1cc(C)nn1CC(=O)N2CC(=O)Nc1ccc(C(F)(F)F)cc1 ? 39.8 to 100 nM

Endpoint output: IC50 of COC1C(=O)N(CC(=O)Nc2ccc(C(F)(F)F)cc2)c2cc(C)nc(Cl)c2-c2ccccc21 (stereo not shown) . Value? 15.8 to 39.8 nM

====

# TARGET_UNDER_TEST: system Xc^− (Homo sapiens)
# MEASUREMENT_NOTES: Cystine-induced glutamate release assay
# Assay type: cell-based
# Set-up: endogenous in cells; host or cells: H4 cells
# ASSAY_CONTEXT: H4 cells, sodium-free HEPES buffer, 50 μM L-Cystine, 2 hours, Amplex Red glutamate readout; read-out: pIC50 Cystine-induced glutamate release assay (converted)
In this section, each of the molecules is paired with its reported IC50.

// below: answered molecules
Cc1cc2c(c(F)n1)-c1cc(F)cnc1C(C)C(=O)N2CC(=O)Nc1ccc(C(C)(F)F)cc1 (single isomer, unassigned) = < 0.0158 µM
Cc1cc2c(cn1)-c1cccc(Cl)c1CC(=O)N2CC(=O)Nc1ccc(C(F)(F)F)cc1 = 0.1 to 0.501 µM
Cc1cc2c(c(F)n1)-c1cccnc1C(C)C(=O)N2CC(=O)Nc1ccc(C#N)c(F)c1 (stereo not drawn) = 0.0398 to 0.1 µM
Cc1nccc2c1-c1ccccc1CC(=O)N2CC(=O)Nc1ccc(C(F)(F)F)cc1 = 0.0398 to 0.1 µM
C[C@@H]1C(=O)N(CC(=O)Nc2ccc(C(F)F)cc2)c2cc(N3CC[C@@H](F)C3)nc(F)c2-c2cccnc21 (single isomer, unassigned) [#277] = 0.0158 to 0.0398 µM
Cc1cc2c(c(F)n1)-c1cccnc1C(O)C(=O)N2CC(=O)Nc1ccc(C(F)(F)F)cc1 (stereo not drawn) = 0.0398 to 0.1 µM

Attention now shifts to the item below.
Give system Xc^− (Homo sapiens) IC50 for Cc1cc2c(c(F)n1)-c1cncnc1C(C)C(=O)N2CC(=O)Nc1ccc(Cl)c(F)c1 (single isomer, unassigned) < 0.0158 µM
